The reported numbers originate from ChEMBL document CHEMBL4765284.

System: Human immunodeficiency virus 1
Experiment: Antiviral activity against HIV-1 infected in FlpIn-HEK293 cells assessed as activation of long terminal repeat driven gene expression incubated for 72 hrs by luciferase based cellular assay
Format: functional, organism-based
Conditions: Human immunodeficiency virus 1, HEK293, 72 h
outcomeMeasure: EC50 (nM)

Recorded EC50, per entry:
# compound, unitsText, readoutNumber
records = [
    ("Cc1ccc(N2CCN(C(=O)Nc3ncc(C(F)(F)F)s3)CC2)cc1Cl", "nM", 1300),
    ("Cc1cnc(NC(=O)C2CCN(c3ccc(C)c(Cl)c3)CC2)s1", "nM", 2500),
    ("Cc1ccc(N(C)C2CN(C(=O)Nc3ncc(Cl)s3)C2)cc1Cl", "nM", 930),
    ("O=C(Nc1ncc(Cl)s1)N1CCN(c2ccc(Cl)c(Cl)c2)CC1", "nM", 310),
    ("Cc1cnc(NC(=O)N2CCN(c3ccccc3)CC2)s1", "nM", 1700),
]

I: Cc1cnc(NC(=O)N2CCN(c3ccc(Cl)cc3)CC2)s1
II: O=C(Nc1ncc(C(F)(F)F)s1)N1CCN(c2cnc(Cl)c(Cl)c2)CC1
III: Cc1cnc(NC(=O)N2CCN(c3cnc(C#N)c(C)c3)CC2)s1
IV: Cc1cnc(NC(=O)N2CCN(c3ccc(C)c(Cl)c3)CC2C)s1 (stereo not drawn)
V: O=C(Nc1ncc(Cl)s1)N1CCN(c2cnc(Cl)c(Cl)c2)CC1
Could you please order the items by EC50, going from the lowest number to the highest? // rank by listing labels in the order requested V, II, I, IV, III
(V: 80 nM, II: 700 nM, I: 2700 nM, IV: 5000 nM, III: 10000 nM)

1: Cc1cnc(NC(=O)N2CC(N(C)c3ccc(C)c(Cl)c3)C2)s1
2: Cc1cnc(NC(=O)N2CCN(c3ccc(Cl)c(Cl)c3)CC2)s1
Return label of the item with the larger EC50. Candidates: 1 , 2 . Use the label to indicate which entry you chose. 1

a: Cc1ccc(OCCCc2nc3cc(Cl)cnc3[nH]2)cc1Cl
b: Clc1cnc2[nH]c(N3CCN(c4ccc(Cl)c(Cl)c4)CC3)nc2c1
Of a versus b , which is the one with smaller reported EC50? Use the label to indicate which entry you chose. b
(b: 980 nM, a: 9400 nM)

I: Cc1cnc2[nH]c(CCCOc3ccc(C)c(Cl)c3)nc2c1
II: N#Cc1cnc(NC(=O)N2CCN(c3ccc(Cl)c(Cl)c3)CC2)s1
III: Cc1ccc(N2CCN(C(=O)Nc3nccs3)CC2)cc1Cl
Could you please order the items by EC50, going from the lowest number to the highest? // rank by listing labels in the order requested II, III, I

a: Cc1ccc(N2CCN(c3nc4cc(Br)cnc4[nH]3)CC2)cc1Cl
b: Cc1cnc(NC(=O)N2CCN(c3cc(C)c(C#N)cn3)CC2)s1
Return label of the item with the larger EC50. Candidates: a , b . Use the label to indicate which entry you chose. b
